# target: human uPAR displayed on the surface of MDA-MB-231 cells (human, UniProt Q03405 23-305)
# Sequence (Q03405 23-305): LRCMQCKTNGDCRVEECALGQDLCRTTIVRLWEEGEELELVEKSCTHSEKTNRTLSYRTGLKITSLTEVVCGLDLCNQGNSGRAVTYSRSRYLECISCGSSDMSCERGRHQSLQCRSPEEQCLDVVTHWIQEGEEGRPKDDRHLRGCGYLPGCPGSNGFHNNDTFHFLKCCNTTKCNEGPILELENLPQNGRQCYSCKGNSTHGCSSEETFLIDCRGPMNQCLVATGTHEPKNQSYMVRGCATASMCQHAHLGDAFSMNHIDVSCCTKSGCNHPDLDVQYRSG
# assay.remarks: cell-based or functional assay
In this section, each of the binders is paired with its reported ADCC PBMCs Max %.
Please state the figure in %; there is no need to write the unit.

Examples with their reported ADCC PBMCs Max % follow.
Antibody 8163 (antibody, human IgG1, V domains shown, Chimeric: mouse VH/VL linked to Herceptin (trastuzumab) human IgG1 / kappa constant regions) VH: EVQLVESGGGLVQPGESLTLSCDSNEFDFPSHDMSWVRKTPEKRLELVAAIDSDGGLTYYSNSRERRFIISRDNTKNTLYLQMRSLRSEDTALYYCARRRASYWYFDVWGTGTTVTVSS VL: DILLTQSPAILPVSPGERVSFSCRASQNIGTSIHWYQQRTNGSPRLLIKYASESISGIPSRFSGSGSGTDFTLSINGVESEDIGDYYCQQSNSWPTFGGGTKLEIK :: 57.5
Antibody 3595 (antibody, human IgG1, V domains shown, Chimeric: mouse VH/VL linked to Herceptin (trastuzumab) human IgG1 / kappa constant regions) VH: EVQLRQSGPELVKPGASVKISCKASGYTFTDYYMNWVKQSHEKSLEWIGNINPNNGGTDYNQKFKGKATLTVDKSSSTAYMELRSLTSEDSAVYYCARSYGSRFPYWGLGTLVTVSA VL: DIQMTQTTSSLSASLGDRVTISCRASQDITNYLSWYQQKPDGTVKLLIFYTSFLQSGVPLRFSGSGSGADYSLTISNLEQEDFATYFCQQGHTLPWTFGGGTKLEIK :: 55.6
Antibody 11857 (antibody, human IgG1, V domains shown) VH: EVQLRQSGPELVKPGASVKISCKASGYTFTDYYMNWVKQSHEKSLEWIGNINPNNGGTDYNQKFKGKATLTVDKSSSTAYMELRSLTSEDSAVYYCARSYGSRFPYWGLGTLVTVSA VL: DIQMTQTTSSLSASLGDRVTISCRASQDITNYLSWYQQKPDGTVKLLIFYTAVLQSGFPLRFSGSGSGADYSLTISNLEQEDFATYFCQQGHTLPWTFGGGTKLEIK :: 52

Which value of ADCC PBMCs Max % has been reported for Antibody 3159 (antibody, human IgG1, V domains shown, Chimeric: mouse VH/VL linked to Herceptin (trastuzumab) human IgG1 / kappa constant regions) VH: QVTLKESGPGILQSSLTLSLTCSLSGFSLSTSGMGVSWIRQPSGKGLEWLAHIYWDDDKRYNPSLKTRLTISKDASRDQVFLKIISVDTADTGTYYCGRRVRNYFSGTSYWYFDVWGTGTTVTVSS VL: DVLMTQTPLSLSVSLGDQASISCRSSQNILHRTGNTYLEWYLQKPGQSPKLLIYKVSNRFSGVPDRFSGSGSGTDFTLKISRLEAEDLGVYYCFQGSYVPFTFGSGTKLEMK in the records? 47.4
